Data origin, for the record: PubChem BioAssay (NCI)

Reported TGI values follow for various molecules
tested on: TK-10 renal; assay: NCI tumour cell line growth inhibition, 48 h
PROPERTY MEASURED: TGI

| MOLECULE | TEST VALUE |
| --- | --- |
| CCCc1nc(NC#N)nc(C(=O)NC23CC4CC(CC(C4)C2)C3)c1C | > 100 µM |
| O=S(=O)(CCNCc1ccc(-c2ccc3ncnc(Nc4ccc(OCc5cccc(F)c5)c(Cl)c4)c3c2)o1)c1ccccc1 | > 25 µM |
| O=C(O)c1cccc2cccc(C(=O)O)c12.[Hg] | 34.6 µM |
| CO/N=C(\C(=O)Nc1cncs1)c1csc(N)n1 | > 10 µM |
| Brc1ccccc1C=NC12CC3CC(CC(C3)C1)C2 | > 100 µM |
| NC(=O)Nc1ccc(C(=O)NCCCNC(=O)c2ccc(NC(N)=O)cc2)cc1 | > 100 µM |
| C/C(=N/c1[nH]c(=O)cc2c1C(=O)CC2)N(C)C | > 200 µM |
| CCC(c1ccc2cc(O)ccc2c1)C(C)(C)C(=O)O (stereo unspecified) | > 100 µM |
| NC(=NCCN1CCCCCCC1)NO | > 100 µM |
| OCC1OC(n2cnc3c2NC=NC[C@H]3O)CC1O (stereo partly specified) | > 500 µM |
| N#Cc1cc(N(CCCl)CCCl)c([N+](=O)[O-])cc1[N+](=O)[O-] | > 100 µM |

###

test system: MALME-3M melanoma; assay: NCI tumour cell line growth inhibition, 48 h
PROPERTY MEASURED: log10(TGI) (log10 of the value in µM)

| COMPOUND | log10(TGI) |
| --- | --- |
| COC(=O)Cc1c(/C=C/C(C)(C)n2cnc(CCN3C(=O)CCC3=O)c2)[nH]c2ccccc12 | 1.99 |
| C=C(C)[C@@H]1CC[C@]2(C(=O)O)CC[C@]3(C)[C@H](CC[C@@H]4[C@@]5(C)C/C(=C/c6ccc(OC)cc6)C(=O)C(C)(C)[C@@H]5CC[C@]43C)[C@@H]12 | 0.63 |
| O=C1/C(=C/c2ccccc2F)CN(C(=O)C(Cl)Cl)C/C1=C\c1ccccc1F | 0.28 |
| COc1cc(/C=C2\C(=O)N(c3ccccc3)c3ccccc32)cc(OC)c1OC | 1.67 |
| C/C(=N\Nc1nc2ccccc2s1)c1cnccn1 | 1.64 |
| COc1ccc2nc3cc([N+](=O)[O-])ccc3c(Nc3ccc(S(=O)(=O)N=C(N)N)cc3)c2c1 | 1.45 |
| CCC1CC(C)=CCN1S(=O)(=O)c1ccc(C)cc1 (stereo not drawn) | 1.79 |
| C=C(C)[C@@H]1CCC2=C[C@H](OC2=O)[C@@]2(C)C[C@@H]2C(=O)/C=C(/C)C(=O)[C@H]1OC(C)=O | 1.47 |

###

test system: MCF7 breast; test: NCI tumour cell line growth inhibition, 48 h
PROPERTY MEASURED: TGI

| COMPOUND | TEST VALUE |
| --- | --- |
| COc1cc(C2CC(c3ccccc3)=NN2C(C)=O)cc(OC)c1OC (stereo not drawn) | > 100 µM |
| COc1cc(-n2cnc(-c3ccc(Cl)cc3)c2)cc(OC)c1OC | 34.7 µM |
| CCOC(=O)c1c[nH]cc1-c1cn(S(=O)(=O)c2ccccc2)cc1C | 61 µM |
| CSC1=Nc2c(c(C)c(C)n2COC(CO)CO)C2=NC(=O)CC(C)N12 (stereo not drawn) | > 100 µM |
| CCOC(=O)c1[nH]cc(C)c1-c1c[nH]c2ccccc12 | > 60.8 µM |
| Cc1nc2c(O)cc3c4c(n(Cc5ccccc5)c3c2nc1C)C(=O)CCC4 | > 100 µM |
| C/C(=C\CCc1ccsc1)CC/C=C(\C)CCCN1CCC(CO)CC1 | 5.09 µM |
| CCn1c(-c2nonc2N)nc2cncc(C(=O)NCCNC)c21 | > 25 µM |
| COc1ccc(OC)c(/C=C2\COc3ccc(O)c(O)c3C2=O)c1 | 14.4 µM |
| C=C(C)[C@@H]1CCC2=C[C@H](OC2=O)[C@@]2(C)C[C@@H]2C(=O)/C=C(/C)C(=O)[C@H]1OC(C)=O | > 37.6 µM |
| O=Nc1sc(=N\O)/c(=N/O)sc1NO | > 100 µM |
| CCOC1(OCC)N=C(N)C2(C#N)C3(C(=O)N(C(C)C)N=C3C)C12C#N (stereo not drawn) | > 100 µM |
| CC(C)NC(=O)OCc1c(COC(=O)NC(C)C)c(-c2ccc(Cl)c(Cl)c2)n2c1CCC2 | > 100 µM |
| O=C1CC[C@H](c2ccc(O)c3c2C(=O)[C@@H]2O[C@@H]2C3=O)c2cccc(O)c21 | 4.2 µM |
| Cc1ccc2ccc3ccc(C)nc3c2n1 | 0.93 µM |
| Cc1cc2cc3cc(C)c(N)cc3[n+](C)c2cc1N | 6.08 µM |
| CCC(CCN)(CCN)[N+](=O)[O-] | > 100 µM |
| O=C1/C(=C/c2ccccc2F)CN(C(=O)C(Cl)Cl)C/C1=C\c1ccccc1F | 0.983 µM |
| CCC(c1ccc2cc(O)ccc2c1)C(C)(C)C(=O)O (stereo not drawn) | > 100 µM |
| COC(=O)c1cc(C)ccc1C1CN=NC12Cc1cccc(C)c1C2=O (stereo not drawn) | > 100 µM |
| C/C=C1/CN2CCC34c5ccccc5N(C)C23C2CC1C4(C(=O)OC)C(O)O2 (stereo not drawn) | > 100 µM |
| Cc1cc(=O)oc2c(OS(C)(=O)=O)c(OS(C)(=O)=O)ccc12 | > 100 µM |
| Nc1ccc(-c2nc3ccccc3o2)cc1S | 38.3 µM |
| COc1nc(N)nc2c1ncn2[C@@H]1O[C@H](CO)[C@@H](O)[C@@H]1O | > 100 µM |
| O=C(NCCNc1nccc(-c2c(-c3ccc(F)cc3)nc3sccn23)n1)c1ccccc1 | 17.3 µM |
| CCCC(=O)Nc1ccc2c(c1)CN1C(=O)c3ccccc3C1=N2 | > 100 µM |
| O=C1NC(c2c(Cl)cccc2Cl)Nc2ccccc21 (stereo not drawn) | > 100 µM |
| CC(=O)NC1C(OC2C(CO)OC(OCC3OC(n4ccc(N)nc4=O)C(O)C3O)C(NC(C)=O)C2O)OC(CO)C(O)C1O (stereo not drawn) | > 100 µM |
| Cc1[nH]nc2ccc3nc(-c4ccc5[nH]ncc5c4)c4c(c3c12)CCCC4 | 17.1 µM |
| CC1(C)N=C(N)N=C(N)N1c1cccc(CCCCOc2ccccc2)c1 | 17.5 µM |
| COc1ccc2c(c1)/C(=C\c1c(Cl)n(C)c3ccccc13)C(=O)N2 | > 38.7 µM |
| CC(C)n1c(=O)[nH]n(-c2ccccc2)c1=O | > 100 µM |
| OCCCc1cc(O)c2c(c1)C(CO)C(c1ccc(O)c(O)c1)O2 (stereo not drawn) | > 100 µM |
| CC(=O)C1=C(C)N2C(=NC3=C(CCc4ccccc43)C2c2cccc(Br)c2)S1 (stereo not drawn) | > 100 µM |
| CCCCCCCCCCCCCCCCCC(=O)OCC(COC1OC(CS(=O)(=O)O)C(O)C(O)C1O)OC(=O)CCCCCCCCCCCCCCCCC (stereo not drawn) | > 100 µM |
| CC(C)(C)OC(=O)CC(NC(=O)OC(C)(C)C)C(=O)NC(C(=O)O)C(O)c1ccccc1 (stereo not drawn) | > 100 µM |
| CN(C)CCNC1=CC(=O)c2nc3ccccc3c3ccnc1c23 | 16.3 µM |
| NCCCCN(CCCN)Cc1ccc2ccccc2c1 | > 100 µM |
| COc1cc(C2S/C(=C/c3ccccc3)C(=O)N2c2cc(Cl)c(Cl)cc2Cl)cc(OC)c1OC (stereo not drawn) | > 100 µM |
| CNCCCNC1(c2cc3ccccc3s2)CCCCC1 | 15.5 µM |
| CC(C(=O)O)/C(=C\c1ccc2c(c1)OCO2)C(=O)O (stereo not drawn) | > 100 µM |
| CC(=O)OC1Oc2cc(C)c(C)cc2-c2oc(=O)c(-c3ccc(F)cc3)cc21 (stereo not drawn) | 20.1 µM |
| COc1cc(NC(=O)CSc2nc3ccccc3c(=O)n2CCc2ccccc2)cc(OC)c1OC | > 100 µM |
